Values from PubChem BioAssay (NCI)

Assay: NCI Yeast Anticancer Drug Screen. Data for the mlh1 rad18 strain (AID 175)
Conditions: S. cerevisiae mlh1 rad18 strain growth inhibition; at 50.0 µM; active compounds read high
Method: Growth inhibition of yeast strains with defined genetic alterations is measured as a screen for potential anti-cancer activity. Selected strains with alterations in DNA damage repair or cell cycle control were exposed to compounds and growth inhibition was measured relative to vehicle treated controls. The strain used in this assay is mlh1 rad18
About 79,000 compounds went through this panel and 15% of them were active in at least one assay; those are over-represented in the sample as a whole.
Outcome measure: growth inhibition (%)

* C=C(NC(C)=O)C(=O)CCC(N)=O | -53.7
* Cn1c(=O)c(Cl)c(N=[N+]=[N-])c2ccccc21 | 30.2
* CC1(C)CCCc2c(-c3ccccc3)cc3c4ccccc4cc[n+]3c21 | -14.1
* Clc1ccc(OCC(COc2ccc(Cl)cc2)(COc2ccc(Cl)cc2)COc2ccc(Cl)cc2)cc1 | 0.7
* OCC(O)C(O)C(OC1OC(CO)C(O)C(O)C1O)C(O)CO (stereo unspecified) | -3.2
* CC(=O)Oc1ccc(-c2c3ccccc3cc3c2ccc2ccccc23)cc1 | -28.3
* CC(=O)CC(C)=Nc1ccc([N+](=O)[O-])cc1 | 2.3
* NC(=O)c1ccccn1 | 28.4
* NC1C(O)OCC(O)C1O (stereo unspecified) | 23.1
* COc1ccc(NC(=O)Oc2ccc3c(C)cc(=O)oc3c2)c(OC)c1 (tested in a mixture with another compound) | 12.3
* O=C(c1ccco1)N(C(=S)N1CCN(c2ccccc2)CC1)C1CCCCC1 | 19.1
